All figures here come from patent US20260193366A1.

# Test system: T1, hIL-4Rα on cells (human, UniProt P24394 26-825)
# T1 sequence: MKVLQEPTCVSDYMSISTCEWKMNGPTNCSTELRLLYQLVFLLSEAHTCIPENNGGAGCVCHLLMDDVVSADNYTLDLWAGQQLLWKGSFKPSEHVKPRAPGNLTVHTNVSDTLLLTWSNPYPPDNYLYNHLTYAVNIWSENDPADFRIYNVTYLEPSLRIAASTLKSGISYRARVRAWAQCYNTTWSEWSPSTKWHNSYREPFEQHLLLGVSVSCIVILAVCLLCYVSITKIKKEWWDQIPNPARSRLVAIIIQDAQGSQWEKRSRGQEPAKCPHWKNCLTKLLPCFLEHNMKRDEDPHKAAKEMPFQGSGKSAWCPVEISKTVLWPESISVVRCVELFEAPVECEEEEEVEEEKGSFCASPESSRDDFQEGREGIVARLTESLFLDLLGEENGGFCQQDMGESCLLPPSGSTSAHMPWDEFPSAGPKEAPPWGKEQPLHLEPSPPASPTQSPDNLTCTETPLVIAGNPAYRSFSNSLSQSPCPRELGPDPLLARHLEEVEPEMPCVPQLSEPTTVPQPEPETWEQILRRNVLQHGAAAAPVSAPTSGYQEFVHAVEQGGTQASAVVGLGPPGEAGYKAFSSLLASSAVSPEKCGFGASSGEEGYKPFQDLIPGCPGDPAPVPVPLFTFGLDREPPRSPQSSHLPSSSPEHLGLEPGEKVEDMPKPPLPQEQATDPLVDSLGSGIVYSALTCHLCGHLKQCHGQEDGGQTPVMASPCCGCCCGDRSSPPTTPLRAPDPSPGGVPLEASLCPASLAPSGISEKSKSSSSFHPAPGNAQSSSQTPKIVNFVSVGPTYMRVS
# Assay explanation: cell-based or functional assay
Measurement type: Relative Inhibition of IL-4 induced pSTAT6 IC50

- Binder: "Construct 12 (mAb421) (antibody, IgG4, V domains shown, VH/VL only) VH: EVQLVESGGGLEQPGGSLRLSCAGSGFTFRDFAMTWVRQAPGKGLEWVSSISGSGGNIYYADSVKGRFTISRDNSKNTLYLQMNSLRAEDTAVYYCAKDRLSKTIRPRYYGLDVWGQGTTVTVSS VL: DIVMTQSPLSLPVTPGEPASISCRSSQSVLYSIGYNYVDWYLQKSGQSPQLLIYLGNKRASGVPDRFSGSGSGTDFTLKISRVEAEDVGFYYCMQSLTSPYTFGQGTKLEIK"
  Assay result: "0.457 relative to dupilumab"
- Binder: "Construct 26 (mAb434) (antibody, IgG4, V domains shown, VH/VL only) VH: EVQLVESGGGLEQPGGSLRLSCAGSGFTFRDFAMTWVRQAPGKGLEWVSSISGGGGSTYYADSVKGRFTISRDNSKNTLYLQMNSLRAEDTAVYYCAKDRLSIAVRPRYYGLDVWGQGTTVTVSS VL: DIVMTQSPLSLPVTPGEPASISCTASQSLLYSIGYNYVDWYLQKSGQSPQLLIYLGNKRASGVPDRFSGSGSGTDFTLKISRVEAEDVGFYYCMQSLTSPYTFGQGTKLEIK"
  Assay result: "0.661 relative to dupilumab"
